# tested_system: EP2 (Homo sapiens)
# Construct: SF295 glioblastoma cells express high endogenous EP2 and no EP4
# test_summary: hEP2 cAMP Assay (SF295 glioblastoma cells, HTRF cAMP, PGE2 75 nM)
# measurement_conditions: antagonistic activity, PGE2 75 nM (EC80)
pIC50: −log10 of the molar value.
readout: pIC50

The following compounds have reported results that may help.
CCOc1cc(-c2cc(NCCc3c(OC)ccc4ccccc34)ncn2)ccc1NC(=O)C(=O)O: 7.66
CCCCOc1cc(-c2cc(NCCc3c(OC)ccc4ccccc34)ncn2)ccc1C(=O)O: 7.92
CCOc1cc(-c2cc(NCCc3ccc(C#N)c4ccccc34)ncn2)sc1C(=O)O: 7.10

A: CCOc1cc(-c2cc(NCCc3c(OC)ccc4c(OC)cccc34)ncn2)sc1C(=O)O
B: CCOc1ccc2ccccc2c1CCNc1cc(-c2ccc(C(=O)O)c(OC3CCC3)c2)ncn1
INPUT: Between A and B , which one shows the larger pIC50 value? Your answer should be the label attached to the chosen record.
OUTPUT: B
(B: 7.96, A: 6.52)

###

# tested_system: PTGER2 (EP2) (Homo sapiens, UniProt P43116)
# test_summary: hEP2 b-Arrestin Assay (PathHunter HEK 293 PTGER2 b-arrestin cells, PGE2 5 μM)
# measurement_conditions: antagonistic activity, beta-arrestin assay, HEK 293 PTGER2 cells, PGE2 5 μM (EC80); read-out: hEP2 b-arr IC50
pIC50: −log10 of the molar value.
readout: pIC50

a: CCOc1cc(-c2cc(NCCc3c(OC)ccc4ncccc34)ncn2)sc1-c1nnn[nH]1 [Example 145]
b: CCOc1cc(-c2cc(NCCc3c(OC)ccc4ncccc34)ncn2)sc1-c1noc(=O)[nH]1 [Example 142]
c: CCOc1cc(-c2cc(NCCc3c(OCC)ccc4ccccc34)ncn2)ccc1C(=O)O [Example 179]
d: CCOc1cc(-c2cc(NCCc3c(OC)ccc4ncccc34)ncn2)sc1C(=N)NO [Example 146]
e: CCCc1cc(-c2cc(NCCc3c(OC)ccc4ccccc34)ncn2)cc(F)c1C(=O)O [Example 123]
INPUT: Reorder the list above by recorded pIC50 in ascending order. Provide the ranking by listing each label in its place in the requested order.
OUTPUT: d, e, a, b, c

1: CCOc1cc(-c2cc(NCCc3c(OC)ccc4ccccc34)ncn2)ccc1NC(=O)C(=O)O [Example 133]
2: CCOc1cc(-c2cc(NCCc3c(OC)ccc4c3ccn4C)ncn2)ccc1CC(=O)O [Example 167]
INPUT: Between 1 and 2 , which one shows the larger pIC50 value? Your answer should be the label attached to the chosen record.
OUTPUT: 1

###

# tested_system: EP2 (Homo sapiens, UniProt P43116)
# Construct: SF295 glioblastoma cells express high endogenous EP2 and no EP4; host or cells: SF295 glioblastoma cells
# Sequence (P43116 whole entry): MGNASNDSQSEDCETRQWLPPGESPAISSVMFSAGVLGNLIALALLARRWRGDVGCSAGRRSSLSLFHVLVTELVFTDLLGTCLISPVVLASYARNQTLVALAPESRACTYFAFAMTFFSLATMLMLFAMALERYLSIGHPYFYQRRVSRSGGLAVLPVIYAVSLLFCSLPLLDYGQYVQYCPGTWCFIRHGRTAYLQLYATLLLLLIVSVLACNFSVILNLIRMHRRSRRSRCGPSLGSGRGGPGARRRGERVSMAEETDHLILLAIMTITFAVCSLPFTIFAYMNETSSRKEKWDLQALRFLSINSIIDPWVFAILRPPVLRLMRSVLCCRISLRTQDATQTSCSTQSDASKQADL
# test_summary: hEP2 cAMP Assay (SF295 glioblastoma cells, HTRF cAMP, PGE2 75 nM)
# Format: cell-based
# measurement_conditions: antagonistic activity, PGE2 75 nM (EC80)
pIC50: −log10 of the molar value.
readout: pIC50

CCOc1cc(-c2cc(NCCc3cccc4c(C)c(C)n(C)c34)ncn2)sc1C(=O)O: 6.87

a: CCOc1cc(-c2cc(NCCc3cccc4ccn(C)c34)ncn2)ccc1OCC(=O)O
b: COc1ccc2c(C)ccnc2c1CCNc1cc(-c2ccc(C(=O)O)c(OC3CCC3)c2)ncn1
c: Cc1c(C)n(C)c2c(CCNc3cc(-c4ccc(C(=O)O)c(OC5CCC5)c4)ncn3)cccc12
INPUT: # desc sort on pIC50 across 3 compounds Provide the ranking by listing each label in its place in the requested order.
OUTPUT: b, a, c

###

# tested_system: EP4 (Homo sapiens)
# Construct: BT549 breast cancer cells, express high endogenous EP4 levels and very low EP2 levels
# test_summary: hEP4 cAMP Assay (BT549 breast cancer cells, HTRF cAMP, PGE2 6 nM)
# measurement_conditions: antagonistic activity, PGE2 6 nM (EC80)
pIC50: −log10 of the molar value.
readout: pIC50

The following compounds have reported results that may help.
CCOc1cc(-c2cc(NCCc3c(OC)ccc4c3CCO4)ncn2)sc1C(=O)O: 6.82
COc1ccc2cc(F)cc(CCNc3cc(-c4cc(C(F)(F)F)c(C(=O)O)s4)ncn3)c2n1: 6.71

P: COc1ccc2ccc(F)c(CCNc3cc(-c4cc(C(F)(F)F)c(C(=O)O)s4)ncn3)c2n1
Q: CCOc1cc(-c2cc(NCCc3c(Br)ccc4ccccc34)ncn2)sc1C(=O)O
INPUT: Which value of pIC50 is smaller, the one for P or the one for Q ? Your answer should be the label attached to the chosen record.
OUTPUT: P
(P: 6.64, Q: 7.66)

I: CCOc1cc(-c2cc(NCCc3c(OC)ccc4ccccc34)ncn2)sc1C(=O)O
II: CCOc1cc(-c2cc(NCCc3cccc4c3OCO4)ncn2)sc1C(=O)O
INPUT: Between I and II , which one shows the larger pIC50 value? Your answer should be the label attached to the chosen record.
OUTPUT: I

A: O=C(O)c1ccc(-c2cc(NCCc3cccc4ccccc34)ncn2)cc1OC1CCC1
B: CCOc1cc(-c2cc(NCCc3cccc4cc(C)oc34)ncn2)ccc1OCC(=O)O
INPUT: Which value of pIC50 is smaller, the one for A or the one for B ? Your answer should be the label attached to the chosen record.
OUTPUT: B
(B: 6.05, A: 6.25)

###

# tested_system: PTGER4 (EP4) (Homo sapiens, UniProt P35408)
# Sequence (P35408 whole entry): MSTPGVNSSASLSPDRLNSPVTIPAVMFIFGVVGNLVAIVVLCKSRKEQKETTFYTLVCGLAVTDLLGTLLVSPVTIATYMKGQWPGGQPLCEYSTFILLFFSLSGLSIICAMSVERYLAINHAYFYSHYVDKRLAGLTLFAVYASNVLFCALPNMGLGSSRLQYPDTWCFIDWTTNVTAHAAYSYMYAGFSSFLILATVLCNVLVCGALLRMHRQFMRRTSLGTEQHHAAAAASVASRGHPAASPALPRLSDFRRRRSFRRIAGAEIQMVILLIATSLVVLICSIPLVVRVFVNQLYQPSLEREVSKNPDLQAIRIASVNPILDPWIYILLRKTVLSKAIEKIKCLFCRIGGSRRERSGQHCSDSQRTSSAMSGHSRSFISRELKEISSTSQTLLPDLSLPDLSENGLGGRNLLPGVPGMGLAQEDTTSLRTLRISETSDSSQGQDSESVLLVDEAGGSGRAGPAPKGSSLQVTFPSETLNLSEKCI
# test_summary: hEP4 b-Arrestin Assay (PathHunter HEK 293 PTGER4 b-arrestin cells, PGE2 20 nM)
# measurement_conditions: antagonistic activity, beta-arrestin assay, HEK 293 PTGER4 cells, PGE2 20 nM (EC80); read-out: hEP4 b-arr IC50
pIC50: −log10 of the molar value.
readout: pIC50

CCOc1cc(-c2cc(NCCc3cccc4ncccc34)ncn2)sc1-c1noc(=O)[nH]1 [Example 188]: 6.55

a: CCOc1cc(-c2cc(NCCc3cccc4ccccc34)ncn2)ccc1C(=O)O [Example 6]
b: CCOc1cc(-c2cc(NCCc3c(C)ccc4cnccc34)ncn2)sc1C(=O)O [Example 85]
c: CCOc1cc(-c2cc(NCCc3cccc4ccoc34)ncn2)sc1C(=O)O [Example 35]
INPUT: # desc sort on pIC50 across 3 compounds Provide the ranking by listing each label in its place in the requested order.
OUTPUT: c, b, a
(c: 6.95, b: 6.61, a: 5.77)

###

# tested_system: EP2 (Homo sapiens)
# Construct: SF295 glioblastoma cells express high endogenous EP2 and no EP4
# test_summary: hEP2 cAMP Assay (SF295 glioblastoma cells, HTRF cAMP, PGE2 75 nM)
# measurement_conditions: antagonistic activity, PGE2 75 nM (EC80)
readout: IC50 (nM)

The following compounds have reported results that may help.
CCOc1cc(-c2cc(NCCc3c(OC)ccc4ccccc34)ncn2)sc1/C=C/C(=O)O: 94
CCOc1cc(-c2cc(NCCc3c(OC)ccc4ccccc34)ncn2)sc1CC(=O)O: 49
COc1ccc2ccccc2c1CCNc1cc(-c2cc(OCCO)c(C(=O)O)s2)ncn1: 7
CCOc1cc(-c2cc(NCCc3c(OC)ccc4ncccc34)ncn2)sc1-c1noc(=O)[nH]1: 40
COc1ccc2ccccc2c1CCNc1cc(-c2ccc(C(=O)O)c(CC(C)C)c2)ncn1: 41
CCOc1cc(-c2cc(NCCc3cccc4cnccc34)ncn2)sc1-c1noc(=O)[nH]1: 71

1: COc1ccc2c(OC)cccc2c1CCNc1cc(-c2ccc(C(=O)O)c(OC3CCC3)c2)ncn1
2: CCOc1cc(-c2cc(NCCc3c(OC)ccc4ncccc34)ncn2)ccc1OCC(=O)O
INPUT: Which value of IC50 is smaller, the one for 1 or the one for 2 ? Your answer should be the label attached to the chosen record.
OUTPUT: 2

###

# tested_system: PTGER2 (EP2) (Homo sapiens)
# test_summary: hEP2 b-Arrestin Assay (PathHunter HEK 293 PTGER2 b-arrestin cells, PGE2 5 μM)
# measurement_conditions: antagonistic activity, beta-arrestin assay, HEK 293 PTGER2 cells, PGE2 5 μM (EC80); read-out: hEP2 b-arr IC50
readout: IC50 (nM)

A: CCc1nc(-c2cc(NCCc3c(OC)ccc4ccccc34)ncn2)sc1C(=O)O
B: COc1ccc2ncccc2c1CCNc1cc(-c2cc(C(F)(F)F)c(C(=O)O)s2)ncn1
C: CCOc1cc(-c2cc(NCCc3cccc4c(C)cccc34)ncn2)ccc1CC(=O)O
D: CCOc1cc(-c2cc(NCCc3c(OCC)ccc4sccc34)ncn2)ccc1C(=O)O
INPUT: Reorder the list above by recorded IC50 in ascending order. Provide the ranking by listing each label in its place in the requested order.
OUTPUT: D, A, C, B
(D: 10 nM, A: 20 nM, C: 44 nM, B: 116 nM)

###

# tested_system: PTGER2 (EP2) (Homo sapiens)
# test_summary: hEP2 b-Arrestin Assay (PathHunter HEK 293 PTGER2 b-arrestin cells, PGE2 5 μM)
# measurement_conditions: antagonistic activity, beta-arrestin assay, HEK 293 PTGER2 cells, PGE2 5 μM (EC80); read-out: hEP2 b-arr IC50
pIC50: −log10 of the molar value.
readout: pIC50

The following compounds have reported results that may help.
CCOc1cc(-c2cc(NCCc3c(OC)ccc4ccccc34)ncn2)sc1/C=C/C(=O)O [Example 118]: 7.96
CSc1cc(-c2cc(NCCc3ccc(Br)c4ccn(C)c34)ncn2)ccc1C(=O)O [Example 169]: 6.64
COc1ccc2ccccc2c1CCNc1cc(-c2ccc(C(=O)O)c(CC(C)C)c2)ncn1 [Example 122]: 7.21
CCOc1cc(-c2cc(NCCc3cccc4c3ccn4C)ncn2)sc1C(=O)O [Example 25]: 7.82
CCOc1cc(-c2cc(NCCc3cccc4nc(C)sc34)ncn2)sc1C(=O)O [Example 31]: 6.70
CCOc1cc(-c2cc(NCCc3c(OC)ccc4ccccc34)ncn2)sc1CC(=O)O [Example 132]: 7.21
CCOc1cc(-c2cc(NCCc3cccc4cc[nH]c34)ncn2)sc1-c1noc(=O)[nH]1 [Example 143]: 7.51
CCOc1cc(-c2cc(NCCc3cccc4c(C)cccc34)ncn2)ccc1C(=O)O [Example 184]: 7.57

P: CCOc1cc(-c2cc(NCCc3c(OC)ccc4ccccc34)ncn2)ccc1C(=O)O [Example 3]
Q: COc1ccc2ccn(C)c2c1CCNc1cc(-c2ccc(C(=O)O)c(SC)c2)ncn1 [Example 168]
R: CSc1cc(-c2cc(NCCc3cccc4c(F)cccc34)ncn2)ccc1C(=O)O [Example 172]
S: CCOc1cc(-c2cc(NCCc3ccc(Br)c4ccn(C)c34)ncn2)ccc1C(=O)O [Example 180]
T: CCOc1cc(-c2cc(NCCc3c(OC)ccc4ccccc34)ncn2)sc1-c1noc(=O)[nH]1 [Example 138]
INPUT: Provide the items ranked by increasing pIC50. Provide the ranking by listing each label in its place in the requested order.
OUTPUT: S, Q, R, P, T
(S: 6.36, Q: 7.03, R: 7.35, P: 7.77, T: 8.52)
